Molecular target: X-box-binding protein 1 (Homo sapiens) (UniProt P17861)
Sequence (P17861 whole entry, looked up): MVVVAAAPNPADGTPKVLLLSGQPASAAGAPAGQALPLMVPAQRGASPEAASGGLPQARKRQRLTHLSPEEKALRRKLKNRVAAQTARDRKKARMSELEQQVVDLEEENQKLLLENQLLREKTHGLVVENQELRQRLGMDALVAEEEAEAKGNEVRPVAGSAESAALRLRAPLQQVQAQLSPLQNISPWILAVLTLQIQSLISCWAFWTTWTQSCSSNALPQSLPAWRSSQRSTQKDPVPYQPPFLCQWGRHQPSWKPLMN
Assay: ATG_Xbp1_CIS: Attagene CIS-FACTORIAL HepG2 Assay for human X-box Binding Protein 1 (XBP1) (AID 2282972)
Settings: HepG2 XBP1 cis-element reporter, Attagene multiplex; actives raise or lower the signal
Calls of active or inactive are those of the source. Rule for the calls: active = hit-call score of the fitted dose curve at least 0.9, where 1 is the maximum; inactive = score below 0.9.
Write down the outcome that applies. Available outcomes: active, inactive

Called result for CC(C)=CCC[C@H](C)CC=O
inactive

Called result for CC1(C)[C@@H]2CC[C@@]1(C)[C@H](O)C2
inactive

Called result for CCCCCCCCCCCCOCCO
active

Called result for C=C(C)C(=O)O[C@H]1C[C@@H]2CC[C@@]1(C)C2(C)C
inactive

Called result for CCOc1ccccc1OCC
inactive

Called result for O=S(=O)(O)NC1CCCCC1
inactive

Called result for C=CC(=O)OCC(O)COc1ccccc1 (stereo not drawn)
active

--- query ---
Called result for OCCCCCO
inactive
